measured.target: human TLR8 (Homo sapiens, UniProt Q9NR97)
Sequence (Q9NR97 27-1041): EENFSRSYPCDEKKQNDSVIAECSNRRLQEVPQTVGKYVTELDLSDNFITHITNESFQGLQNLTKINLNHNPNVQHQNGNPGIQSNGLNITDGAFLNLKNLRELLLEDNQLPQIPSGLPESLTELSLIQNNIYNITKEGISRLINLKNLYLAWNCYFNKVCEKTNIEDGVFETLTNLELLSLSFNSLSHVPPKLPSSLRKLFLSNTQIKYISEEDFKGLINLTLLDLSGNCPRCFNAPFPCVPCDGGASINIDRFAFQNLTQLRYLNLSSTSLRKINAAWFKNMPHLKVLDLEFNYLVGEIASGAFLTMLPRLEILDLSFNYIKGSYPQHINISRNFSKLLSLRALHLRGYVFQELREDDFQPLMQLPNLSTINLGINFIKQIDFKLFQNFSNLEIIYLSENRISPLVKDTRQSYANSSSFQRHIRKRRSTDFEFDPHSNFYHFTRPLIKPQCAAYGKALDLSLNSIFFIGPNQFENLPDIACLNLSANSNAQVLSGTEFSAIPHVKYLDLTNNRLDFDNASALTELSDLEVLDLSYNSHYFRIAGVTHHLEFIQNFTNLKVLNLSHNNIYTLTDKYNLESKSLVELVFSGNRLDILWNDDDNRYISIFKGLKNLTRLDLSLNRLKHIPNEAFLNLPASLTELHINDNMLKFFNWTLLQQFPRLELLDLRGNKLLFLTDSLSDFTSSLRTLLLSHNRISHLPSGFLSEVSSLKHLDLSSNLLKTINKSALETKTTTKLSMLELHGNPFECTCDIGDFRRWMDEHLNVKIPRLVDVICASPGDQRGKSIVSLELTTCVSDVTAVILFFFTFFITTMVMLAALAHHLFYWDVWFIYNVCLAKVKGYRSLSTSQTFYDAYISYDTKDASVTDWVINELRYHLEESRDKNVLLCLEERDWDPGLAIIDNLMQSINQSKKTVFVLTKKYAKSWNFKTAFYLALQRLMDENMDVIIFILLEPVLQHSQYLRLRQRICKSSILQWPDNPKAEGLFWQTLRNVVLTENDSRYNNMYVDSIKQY
protocol.text: TLR8 inhibition reporter assay (HEK-Blue cells, SEAP reporter, R848 stimulation)
condition.parameters: HEK-Blue cells overexpressing human TLR8, SEAP reporter, R848 15.9 μM
Overview of recorded IC50 for various compounds
Phrase the answer as number then unit, nothing more needed.

Examples from the recorded data:
COc1cc(-c2[nH]c3ccc(C4CCCN(CCS(C)(=O)=O)C4)cc3c2C(C)C)cn2ncnc12 (stereo not shown) [Example 253] | 4.4 nM
CNC(=O)CN1CC(c2ccc3[nH]c(-c4cc(C)c5ncnn5c4)c(C(C)C)c3c2)C1 [Example 260] | 3.9 nM
Cc1cc(-c2[nH]c3ccc(C4CN(CC(=O)N(C)C)CCO4)cc3c2C(C)C)cc(C)n1 (stereo not shown) [Example 326] | 28 nM
Cc1c(-c2[nH]c3ccc(C4CN(CC(=O)N(C)C)C4)cc3c2C(C)C)cn2cnnc2c1C [Example 539] | 132 nM

input: Please indicate IC50 recorded for COCCN(C)C1CCC(c2ccc3[nH]c(-c4cc(OC)c5ncnn5c4)c(C(C)C)c3c2)CC1 (single isomer, unassigned) [Example 72]
output: 1.2 nM

input: Please indicate IC50 recorded for Cc1c(-c2[nH]c3ccc(CC4CCCN4C4CCOCC4)cc3c2C(C)C)cn2cnnc2c1C (stereo not shown) [Example 429]
output: 17 nM

input: Please indicate IC50 recorded for COc1cc(-c2[nH]c3ccc(C4CC(NC5COC5)C4)cc3c2C(C)C)cn2ncnc12 (stereo not shown) [Example 579]
output: 0.73 nM

----------
measured.target: UniProtKB Q9NR96
Sequence (Q9NR96 26-1032): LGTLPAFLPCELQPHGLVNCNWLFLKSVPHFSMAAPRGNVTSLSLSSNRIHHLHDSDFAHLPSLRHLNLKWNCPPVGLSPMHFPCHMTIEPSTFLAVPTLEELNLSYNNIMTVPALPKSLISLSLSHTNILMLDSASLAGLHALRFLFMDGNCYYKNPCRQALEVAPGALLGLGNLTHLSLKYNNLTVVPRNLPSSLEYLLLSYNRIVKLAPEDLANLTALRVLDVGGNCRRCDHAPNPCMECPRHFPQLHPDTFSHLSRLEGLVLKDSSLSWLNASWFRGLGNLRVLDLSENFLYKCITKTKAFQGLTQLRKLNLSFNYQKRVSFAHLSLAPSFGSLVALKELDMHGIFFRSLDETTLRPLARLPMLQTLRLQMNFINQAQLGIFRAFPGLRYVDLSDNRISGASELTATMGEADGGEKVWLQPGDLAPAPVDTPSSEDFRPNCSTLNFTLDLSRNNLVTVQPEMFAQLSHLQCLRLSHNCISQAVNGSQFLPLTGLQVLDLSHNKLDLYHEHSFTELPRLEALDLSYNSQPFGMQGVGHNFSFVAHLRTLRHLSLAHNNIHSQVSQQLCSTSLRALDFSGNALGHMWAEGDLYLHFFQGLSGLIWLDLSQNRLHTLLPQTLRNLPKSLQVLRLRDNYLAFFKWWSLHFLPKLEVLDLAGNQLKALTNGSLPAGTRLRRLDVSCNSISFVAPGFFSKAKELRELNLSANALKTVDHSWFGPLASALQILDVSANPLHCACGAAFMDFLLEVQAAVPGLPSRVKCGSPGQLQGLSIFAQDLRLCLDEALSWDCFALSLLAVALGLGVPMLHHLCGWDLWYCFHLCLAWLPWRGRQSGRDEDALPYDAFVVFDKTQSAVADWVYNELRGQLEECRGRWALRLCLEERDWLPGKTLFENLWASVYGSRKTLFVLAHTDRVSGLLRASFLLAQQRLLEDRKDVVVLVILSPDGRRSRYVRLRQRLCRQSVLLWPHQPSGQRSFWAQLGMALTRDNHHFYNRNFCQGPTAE
protocol.text: TLR9 inhibition reporter assay (HEK-Blue cells, SEAP reporter, ODN2006 stimulation)
condition.parameters: HEK-Blue cells overexpressing human TLR9, SEAP reporter, ODN2006 5 nM
readout.name: IC50 (µM)
Give a bare numeral; the unit µM is implied.

CC(C)c1c(-c2ccnc3[nH]ncc23)[nH]c2ccc(C(C)C3CCNCC3)cc12 (stereo not drawn) [Example 423] | 2.08
COC1CCC(c2ccc3[nH]c(-c4cc(C)c5ncnn5c4)c(C(C)C)c3c2)CC1 (stereo not drawn) [Example 168] | 34.4
Cc1c(-c2[nH]c3ccc(C4CC(N(C)C)C4)cc3c2C(C)C)cn2ncnc2c1C (stereo not drawn) [Example 574] | 4.25
Cc1c(-c2[nH]c3ccc(C4CCC(NCC(=O)N(C)C)CC4)cc3c2C(C)C)cn2cnnc2c1C (stereo not drawn) [Example 518] | 1.31
COc1cc(-c2[nH]c3ccc(C4CC(NCCS(C)(=O)=O)C4)cc3c2C(C)C)cn2ncnc12 (stereo not drawn) [Example 571] | 2.32
Cc1c(-c2[nH]c3ccc(C4CN(CC(C)C)C4)cc3c2C(C)C)cn2cnnc2c1C [Example 549] | 2.19
Cc1c(-c2[nH]c3ccc(CC4CN(C(C)C)C4)cc3c2C(C)C)cn2ncnc2c1C [Example 435] | 3.41
CCN(C)CC(=O)NC1CCC(c2ccc3[nH]c(-c4cc(OC)c5ncnn5c4)c(C(C)C)c3c2)CC1 (stereo not drawn) [Example 132] | 6.04
COc1cc(-c2[nH]c3ccc(C4CCCN(C5COC5)C4)cc3c2C(C)C)cn2ncnc12 (stereo not drawn) [Example 242] | 25.4
Cc1c(-c2[nH]c3ccc(C4CC(NC5COC5)C4)cc3c2C(C)C)cn2ncnc2c1C (stereo not drawn) [Example 575] | 22.3

input: Consider the molecule COc1cc(-c2[nH]c3ccc(C4CCC(NC(=O)CN(C)C)CC4)cc3c2C(C)C)cn2ncnc12 (stereo not drawn) [Example 122] tested on UniProtKB Q9NR96; state its IC50.
output: 8.7

input: Consider the molecule COc1cc(-c2[nH]c3ccc(C4CCC(NC(=O)CN5CC6(COC6)C5)CC4)cc3c2C(C)C)cn2ncnc12 (stereo not drawn) [Example 138] tested on UniProtKB Q9NR96; state its IC50.
output: 4.44

input: Consider the molecule Cc1c(-c2[nH]c3ccc(C4CCC(N5CC6(COC6)C5)CC4)cc3c2C(C)C)cn2ncnc2c1C (stereo not drawn) [Example 95] tested on UniProtKB Q9NR96; state its IC50.
output: 1.82

----------
measured.target: UniProt:Q9NR97
protocol.text: TLR8 inhibition reporter assay (HEK-Blue cells, SEAP reporter, R848 stimulation)
condition.parameters: HEK-Blue cells overexpressing human TLR8, SEAP reporter, R848 15.9 μM
readout.name: pIC50
In textbook form, pIC50 equals minus log to base ten of the concentration in mol/L.

input: Please indicate pIC50 recorded for CCCN1CC(c2ccc3[nH]c(-c4cn(C)c(=O)c(C)c4C)c(C(C)C)c3c2)C1 [Example 488]
output: 8.22

----------
measured.target: human TLR8 (Homo sapiens, UniProt Q9NR97)
protocol.text: TLR8 inhibition reporter assay (HEK-Blue cells, SEAP reporter, R848 stimulation)
condition.parameters: HEK-Blue cells overexpressing human TLR8, SEAP reporter, R848 15.9 μM
readout.name: IC50 (nM)
Give a bare numeral; the unit nM is implied.

Examples from the recorded data:
Cc1cc(-c2[nH]c3ccc(C4CN(C5CCOC(C)(C)C5)C4)cc3c2C(C)C)cn2ncnc12 (stereo not drawn) | 8.3
Cc1c(-c2[nH]c3ccc(C4CCC(NC(=O)CN(C)C)CC4)cc3c2C(C)C)cn(C)c(=O)c1C (stereo not drawn) [Example 472] | 4.6
Cc1c(-c2[nH]c3ccc(CC4CN(CC(=O)N(C)C)C4)cc3c2C(C)C)cn2ncnc2c1C | 5.1
Cc1c(-c2[nH]c3ccc(C4CN(CC(C)C)C4)cc3c2C(C)C)cn2cnnc2c1C | 9.3
Cc1c(-c2[nH]c3ccc(C4CC5CN(CC#N)CC5C4)cc3c2C(C)C)cn2ncnc2c1C (stereo not drawn) | 15

input: Please indicate IC50 recorded for Cc1cc(-c2[nH]c3ccc(C4CN(CC(C)(C)O)C(C)(C)CO4)cc3c2C(C)C)cn2ncnc12 (stereo not drawn)
output: 48

input: Please indicate IC50 recorded for Cc1c(-c2[nH]c3ccc(C4CCC(N)CC4)cc3c2C(C)C)cn2cnnc2c1C (stereo not drawn) [Example 515]
output: 59

input: Please indicate IC50 recorded for Cc1c(-c2[nH]c3ccc(C4CCC(NCC(C)(C)O)CC4)cc3c2C(C)C)cn2ncnc2c1C (stereo not drawn) [Example 112]
output: 2

input: Please indicate IC50 recorded for COc1cc(-c2[nH]c3ccc(C4CCC(NC(=O)CN(C)C)CC4)cc3c2C(C)C)cn2ncnc12 (stereo not drawn) [Example 127]
output: 3.2

input: Please indicate IC50 recorded for Cc1c(-c2[nH]c3ccc(C4CN(CC(=O)N(C)C)C(C)(C)CO4)cc3c2C(C)C)cn2ncnc2c1C (stereo not drawn) [Example 387]
output: 44

input: Please indicate IC50 recorded for COc1cc(-c2[nH]c3ccc(C4CCC(N5CC[C@H](N(C)C)C5)CC4)cc3c2C(C)C)cn2ncnc12 (stereo partly drawn) [Example 32]
output: 0.16

input: Please indicate IC50 recorded for COc1cc(-c2[nH]c3ccc(C4CCC(NC5(C)CC5)CC4)cc3c2C(C)C)cn2ncnc12 (stereo not drawn) [Example 42]
output: 1

input: Please indicate IC50 recorded for Cc1cc(-c2[nH]c3ccc(C4CN(CC(=O)N(C)C)CCO4)cc3c2C(C)C)cn2ncnc12 (single isomer, unassigned) [Example 316]
output: 55

input: Please indicate IC50 recorded for COc1cc(-c2[nH]c3ccc(C4CCCNC4)cc3c2C(C)C)cn2ncnc12 (single isomer, unassigned) [Example 183]
output: 7.9

input: Please indicate IC50 recorded for Cc1c(-c2[nH]c3ccc(C4CC5CN(CCS(C)(=O)=O)CC5C4)cc3c2C(C)C)cn2ncnc2c1C (stereo not drawn)
output: 18

The reported numbers originate from patent US11878975B2.
